Values compiled from patent US5811558A.

protocol-summary: open randomised two way crossover pharmacokinetic study in healthy male volunteers, single oral dose
Assay type: in vivo, human (healthy male volunteers)
cond: human, in vivo, po, tmax
Method: An open randomised two way crossover study was conducted on a group of 13 healthy male volunteers to investigate the pharmacokinetics of the meglumine salt of (S)-etodolac and racemic etodolac (Lodine®); 11 volunteers received both treatments. Doses used were […] of the meglumine salt (equivalent to 100 mg of the free acid) and 200 mg of racemic etodolac. Blood samples were taken regularly. The results of the pharmacokinetic study are shown in Table 1 and in FIGS. 1 and 2 below. […]
assay-metric: tmax

## Task Name the recorded tmax for CCc1cccc2c3c([nH]c12)[C@@](CC)(CC(=O)O)OCC3 [(R)-etodolac] .
## Result 1.73 h

Others:
## Task Consider the compound shown here: CCc1cccc2c3c([nH]c12)C(CC)(CC(=O)O)OCC3 (racemic) [racemic etodolac] What is its recorded tmax?
## Result 1.67 h
